# System: Surinam grass (Brachiaria decumbens)
# assay-explanation: Test C preemergence
# Type: in vivo
# assay-setup: preemergence, Rate 250 g/ha, visual evaluation after 12 to 14 days
Criterion: Plant response rating (0 to 100), Surinam grass strictly under 60. Met: condition met. Not met: condition not met.

Completed entries (count: 5):
INSERT INTO results (molecule, category) VALUES
  ('CC(C)Oc1cccc(N2CCC(n3ccc(C(C)(C)C)n3)C2=O)c1 (stereo not drawn)', 'condition not met'),
  ('CC(C)(C)c1ccn(C2CCN(c3ccc(Cl)c(Cl)c3)C2=O)n1 (stereo not drawn)', 'condition met'),
  ('CCC(C)c1ccn(C2CCN(c3ccc(C)c(OC)c3)C2=O)n1 (stereo not drawn)', 'condition not met'),
  ('CC1(c2ccn(C3SCN(c4cccc(C(F)(F)F)c4)C3=O)n2)CC1 (stereo not drawn)', 'condition not met'),
  ('CCC(C)c1ccn(C2SCN(c3cccc(C(F)(F)F)c3)C2=O)n1 (stereo not drawn)', 'condition met');

Does O=C1C(n2ccc(C3CCCCC3)n2)SCN1c1cccc(C(F)(F)F)c1 (stereo not drawn) have Plant response rating (0 to 100), Surinam grass strictly under 60?
condition met
